Hey, just so you know, these numbers are from PubChem BioAssay (NCI).

Measured growth values are reported for all entries that follow.
System: BT-549 breast
protocol text: NCI-60 one-dose screen, 48 h (100 = growth as untreated, 0 = no growth, -100 = all killed)
test parameters: 10 µM unless noted
This is part of a sample that, as a whole, favours compounds with a hit. Of some 83,000 tested, about 20% had one in any assay.
Just the number in %, nothing appended.

In the examples that follow, each entry is paired with its recorded growth.
compound	readout	scale unit	test value
Cc1c(Cl)cccc1S(=O)(=O)Nc1ccc2c(c1)C(=O)N(C1CCC(=O)NC1=O)C2=O (centres undefined)	growth	%	63.9
Cc1cc(C)n(C(=O)c2sc(=S)n(-c3ccccc3)c2N=Nc2c(N)n[nH]c2N)n1	growth	%	107
Cc1ccc(NC(=O)CNc2cc(C(N)=O)cc(F)c2C)c(Cl)c1	growth	%	102
C=C(C)[C@@H]1CC[C@]2(C(=O)NCCCCCN(CCC#N)CCC#N)CC[C@]3(C)[C@H](CC[C@@H]4[C@@]5(C)CCC(=O)C(C)(C)[C@@H]5CC[C@]43C)[C@@H]12	growth	%	92.9

Query: // Input: CC(c1ccccc1)N1CSc2nc3ncncc3n2C1 (centres undefined) . Output its growth only.
Result: 59

Query: // Input: C[C@@H]1C[C@H]2C(=O)O[C@@H](C)C(NC(=O)[C@H](Cc3cc(F)cc(F)c3)NC(=O)Nc3ccc(C4CC4)cc3F)C(=O)N3CCC[C@H]3C(=O)N3CCCC[C@H]3C(=O)N[C@@H](CO)C(=O)N2C1 (some centres undefined) . Output its growth only.
Result: 27.6

Query: // Input: Cc1cccc2c3c(sc12)C(c1ccc(F)cc1)C(C#N)=C(/N=C/c1ccc(Cl)cc1)O3 (centres undefined) . Output its growth only.
Result: -26.5

Query: // Input: CNCc1cccc2c1OCCCCCCC(C)(O)CC(C)(C)S(=O)(=O)c1ccc(cc1)-c1cnc(N)c(n1)C(=O)N2 (centres undefined) . Output its growth only.
Result: 27.9

Query: // Input: CC(=O)N1C(=S)NC(=O)C1CC(C)C (centres undefined) . Output its growth only.
Result: 115

###

Test system: BT-549 breast
protocol text: NCI-60 one-dose screen, 48 h (100 = growth as untreated, 0 = no growth, -100 = all killed)
test parameters: 10 µM unless noted
Compounds without any hit were thinned out: in the full panel of roughly 83,000, 20% have a hit.
readout: growth (%)
Just the number in %, nothing appended.

In [3]: df
Out[3]:
                                   molecule  test_value
0  NS(=O)(=O)c1ccc(Nc2nc(SCC(=O)c3ccc(Cl)cc3)nc3c2CCCC3)cc1        67.3

Query: // Input: NS(=O)(=O)c1ccc(Nc2nc(N/N=C/c3ccc(Cl)cc3)nc(Nc3ccccc3)n2)cc1 . Output its growth only.
Result: 74.9

Query: // Input: CCO/C=N/C1=C(C#N)C(c2ccc(F)cc2)c2sc3c(CC)cccc3c2O1 (stereo not given) . Output its growth only.
Result: 27.7

Query: // Input: Cc1cc(C)cc(C(=O)Nc2cccc(C#Cc3cccc4[nH]nc(N)c34)c2)c1 . Output its growth only.
Result: 115

Query: // Input: COc1cc(OC)c(/C=C/S(=O)(=O)Cc2ccc(OC)c(NC(=O)CCC(=O)NO)c2)c(OC)c1 . Output its growth only.
Result: 14.5

Query: // Input: Nc1ccccc1NC(=O)c1ccc(NC(=O)C/C=C/c2cccnc2)cc1 . Output its growth only.
Result: 25.1

Query: // Input: ClC(Cl)c1nc(-c2ccco2)n2nc(-c3ccccc3)cc2n1 . Output its growth only.
Result: 87.7

Query: // Input: CN(C)C(=O)c1cc(-c2ccc3ncnc(NCc4ccccc4)c3c2)cnc1N . Output its growth only.
Result: 111

Query: // Input: COc1ccc(/C=N/NC2=NC3C(S2)N(C)C(=O)N3C)cc1 (stereo not given) . Output its growth only.
Result: 66

Query: // Input: CCn1c(SCC(=O)Nc2cccc(C(=O)/C=C/c3ccc(C)cc3)c2)nc2ccccc2c1=O . Output its growth only.
Result: 93.3
